Assignment: determine reported melting point for the given molecules.

[ask] // Input: CCCCCC(CC(=O)Nc1cc(C(=O)O)ccc1C(C)(C)C)c1ccc(C)cc1OC (centres undefined) . Output its melting point only.
[reply] 164 to 165 °C

[ask] // Input: Cc1nc2cccc(S(=O)(=O)n3c(CCC(=O)O)cc4cc(Cl)ccc43)c2s1 . Output its melting point only.
[reply] 188 to 189 °C

[ask] // Input: O=C1CCC2C3Cc4ccc(O)cc4C2(CCN3CC2CC2)C1 (centres undefined) . Output its melting point only.
[reply] 125 to 127 °C

[ask] // Input: COC(=O)c1sc(-c2ccccc2)cc1NC(C)=O . Output its melting point only.
[reply] 115 °C

[ask] // Input: Cc1cc([N+](=O)[O-])cnc1Oc1ccc(Cl)c(C(F)(F)F)c1 . Output its melting point only.
[reply] 95 to 97 °C

[ask] // Input: COc1ccc2c(c1)C(=O)N(C)CC(CCCl)O2 (centres undefined) . Output its melting point only.
[reply] 98 to 100 °C

[ask] // Input: COC(=O)C1=C(C)NC(C)=C(C(=O)OCCCCl)C1c1cccc([N+](=O)[O-])c1 (centres undefined) . Output its melting point only.
[reply] 125 to 130 °C

[ask] // Input: CCCCCCCCCCNC(=O)c1ccccc1[N+](=O)[O-] . Output its melting point only.
[reply] 55 to 57 °C

[ask] // Input: c1ccc(CNc2nc3c(c4[nH]c(Cc5ccccc5)nc24)CCCC3)cc1 . Output its melting point only.
[reply] 199 to 200 °C

[ask] // Input: NS(=O)(=O)c1ccc(-c2cnn(-c3ccc(F)c(F)c3)c(=O)c2-c2ccc(F)cc2)cc1 . Output its melting point only.
[reply] 177 to 181 °C

[ask] // Input: c1ccc(OCCSCc2nnc(-c3ccc(OCCN4CCCC4)cc3)o2)cc1 . Output its melting point only.
[reply] 65 °C

[ask] // Input: Nc1ccc(C(=O)c2c(F)cccc2F)c(N)n1 . Output its melting point only.
[reply] 179 to 181 °C

[ask] // Input: O=C1N(Cc2ncccc2C(F)(F)F)c2ccccc2C12COc1c(Cl)cc3c(c12)OCCO3 (centres undefined) . Output its melting point only.
[reply] 273 to 275 °C

[ask] // Input: CC(C)(C)c1ccc(NC(=O)Nc2ccc(Oc3cc(Cl)ncn3)cc2)cc1 . Output its melting point only.
[reply] 111 to 112 °C

[ask] // Input: CCCOc1ccccc1C=C1Oc2ccc(C(=O)O)cc2C1=O . Output its melting point only.
[reply] 228 to 229 °C

[ask] // Input: CCCCC(CC(=O)Nc1cc(C(N)=O)ccc1C(C)(C)C)c1ccc(OCCCOC)cc1OC (centres undefined) . Output its melting point only.
[reply] 157 to 162 °C

[ask] // Input: CCOC(=O)C(C)(C)OC(=O)c1cc(-n2c(=O)cc(C(F)(F)C(F)(F)F)[nH]c2=O)ccc1Cl . Output its melting point only.
[reply] 141 to 143 °C

[ask] // Input: CNC(=S)NCCCSCc1c[nH]cn1 . Output its melting point only.
[reply] 118 to 120 °C

[ask] // Input: COc1cc2c(cc1Nc1ncc(Cl)c(Nc3ccc(OC)c4c3C(=O)N(C)C4)n1)CCN(CC(=O)N(C)C)CC2 . Output its melting point only.
[reply] 202 to 203 °C
